B1: Nuclear receptor subfamily 1 group D member 2, residues 103 to 171; numbered along this chain, Q14995 (parent)
chain: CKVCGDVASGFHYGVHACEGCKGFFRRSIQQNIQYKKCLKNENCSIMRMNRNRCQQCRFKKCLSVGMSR

Variants of: B1
test: abundance fitness (aPCA) (normalised: wild type 0, dead -1); higher = more abundant; growth selection in yeast, the domain comes from the species named
assayContext: Homo sapiens

{"variantLabel": "Q56F", "abundance fitness": -0.006}
{"variantLabel": "N52M", "abundance fitness": -0.419}
{"variantLabel": "R58E", "abundance fitness": -0.474}
{"variantLabel": "R51Y", "abundance fitness": -0.077}
{"variantLabel": "Q30L", "abundance fitness": -0.023}
{"variantLabel": "V65K", "abundance fitness": -0.851}
{"variantLabel": "C54E", "abundance fitness": -0.77}
{"variantLabel": "M49K", "abundance fitness": 0.12}
{"variantLabel": "C57Q", "abundance fitness": -0.59}
{"variantLabel": "C54F", "abundance fitness": -0.946}
{"variantLabel": "N43R", "abundance fitness": -0.12}
{"variantLabel": "S64Q", "abundance fitness": 0.12}
{"variantLabel": "R51E", "abundance fitness": -0.091}
{"variantLabel": "E42S", "abundance fitness": -0.172}
{"variantLabel": "V65R", "abundance fitness": -0.895}
{"variantLabel": "E42V", "abundance fitness": -0.798}
{"variantLabel": "Q31Y", "abundance fitness": -0.276}
{"variantLabel": "Q30N", "abundance fitness": -0.43}
{"variantLabel": "N43V", "abundance fitness": -0.181}
{"variantLabel": "R27L", "abundance fitness": -0.154}
{"variantLabel": "N32D", "abundance fitness": -0.199}
{"variantLabel": "R58T", "abundance fitness": -0.097}
{"variantLabel": "K36W", "abundance fitness": -0.33}
{"variantLabel": "V65T", "abundance fitness": -0.536}
{"variantLabel": "L63G", "abundance fitness": -0.92}
{"variantLabel": "Q56C", "abundance fitness": -0.391}
{"variantLabel": "S64F", "abundance fitness": -0.545}
{"variantLabel": "N43P", "abundance fitness": -0.472}
{"variantLabel": "K37N", "abundance fitness": 0.375}
{"variantLabel": "R53W", "abundance fitness": 0.14}
{"variantLabel": "Q56L", "abundance fitness": -0.022}
{"variantLabel": "K40N", "abundance fitness": 0.246}
{"variantLabel": "C54D", "abundance fitness": -0.749}
{"variantLabel": "K40D", "abundance fitness": 0.115}
{"variantLabel": "R48L", "abundance fitness": 0.191}
{"variantLabel": "Q31R", "abundance fitness": -0.289}
{"variantLabel": "C38Y", "abundance fitness": -0.785}
{"variantLabel": "K61H", "abundance fitness": -0.681}

// provenance: the Human Domainome abundance scans (Beltran et al. 2025)
